melting point values by entry

>  <smiles.input>
C1=Cc2c(ccc3[nH]c4c(c23)CCN(Cc2ccccc2)CC4)OC1

>  <melting point>
157 to 160 °C

$$$$
>  <smiles.input>
O=C(Cn1c2c(c3c4c(ccc31)OCC=C4)CCN(Cc1ccccc1)CC2)Nc1ccccc1

>  <melting point>
134 to 136 °C

$$$$
>  <smiles.input>
Cl.c1cc2[nH]c3c(c2c2c1OCCC2)CCNCC3

>  <melting point>
> 283 °C (dec.)

$$$$
>  <smiles.input>
Cl.O=C(Cn1c2c(c3c4c(ccc31)OCCC4)CCNCC2)Nc1ccccc1

>  <melting point>
> 250 °C (dec.)

$$$$
>  <smiles.input>
O=C(O)Cn1c2c(c3c4c(ccc31)OCC=C4)CCN(Cc1ccccc1)CC2

>  <melting point>
185 to 187 °C

$$$$
>  <smiles.input>
Cn1c2c(c3c4c(ccc31)OCC=C4)CCN(Cc1ccccc1)CC2

>  <melting point>
112 to 114 °C

$$$$
